- experiment: plasma protein binding, dog
- Format: in vitro ADME
parameter_measured: fraction unbound
Give bare numbers.

Input: Could you tell me which fraction unbound is on file for Fc1ccc(Nc2n[nH]c3cccnc23)cc1Cl ?
Output: 0.009

* * *

- tgt: UniProtKB P11712
- Sequence (P11712 whole entry): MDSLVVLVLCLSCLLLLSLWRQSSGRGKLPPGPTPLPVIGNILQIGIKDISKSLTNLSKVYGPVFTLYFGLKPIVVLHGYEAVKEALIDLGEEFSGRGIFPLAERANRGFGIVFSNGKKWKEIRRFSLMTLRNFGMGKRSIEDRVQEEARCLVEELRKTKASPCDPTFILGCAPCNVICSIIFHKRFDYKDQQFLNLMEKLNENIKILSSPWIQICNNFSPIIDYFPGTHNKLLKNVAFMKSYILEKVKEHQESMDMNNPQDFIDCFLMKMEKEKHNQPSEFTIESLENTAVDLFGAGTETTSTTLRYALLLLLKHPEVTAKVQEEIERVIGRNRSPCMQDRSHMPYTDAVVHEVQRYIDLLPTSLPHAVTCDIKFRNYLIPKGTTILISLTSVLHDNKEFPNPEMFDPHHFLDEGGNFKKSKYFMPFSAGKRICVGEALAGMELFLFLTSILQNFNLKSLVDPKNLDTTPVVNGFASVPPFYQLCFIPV
parameter_measured: IC50
State the result as a value with its unit after it.

Input: Identify the measured IC50 of Fc1ccc(Nc2n[nH]c3cccnc23)cc1Cl for UniProtKB P11712.
Output: 8.9 µM

* * *

- tgt: CYP3A4 (Homo sapiens)
- Sequence (P08684 whole entry): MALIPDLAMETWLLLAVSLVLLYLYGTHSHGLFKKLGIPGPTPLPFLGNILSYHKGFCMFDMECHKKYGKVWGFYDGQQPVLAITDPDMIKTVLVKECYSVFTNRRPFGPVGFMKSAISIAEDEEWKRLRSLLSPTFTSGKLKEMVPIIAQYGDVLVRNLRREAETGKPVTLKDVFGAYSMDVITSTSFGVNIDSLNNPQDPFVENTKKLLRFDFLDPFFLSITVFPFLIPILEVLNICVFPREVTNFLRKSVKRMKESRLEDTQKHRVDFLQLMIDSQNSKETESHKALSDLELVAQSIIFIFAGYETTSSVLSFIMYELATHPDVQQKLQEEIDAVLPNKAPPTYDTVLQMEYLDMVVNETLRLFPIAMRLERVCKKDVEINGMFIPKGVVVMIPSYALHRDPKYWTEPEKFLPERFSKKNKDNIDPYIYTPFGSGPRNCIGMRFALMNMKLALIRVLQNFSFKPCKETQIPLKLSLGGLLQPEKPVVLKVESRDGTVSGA
pIC50: −log10 of the molar value.
parameter_measured: pIC50

Input: Could you tell me which pIC50 is on file for Fc1ccc(Nc2n[nH]c3cccnc23)cc1Cl [Compound 26] ?
Output: < 4.52

* * *

- experiment: in vivo
- measurement_context: rat, plasma, po, 10 mg/kg
parameter_measured: Tmax (h)
One number for each entry, in h.

Input: Could you tell me which Tmax is on file for Fc1ccc(Nc2n[nH]c3cccnc23)cc1Cl ?
Output: 2

* * *

- System: CYP1A2
- experiment: CYP1A2 induction in cryopreserved hepatocytes
- Format: cell-based, human
- measurement_context: human
parameter_measured: EC50 (µM)
Numbers only, in µM.

Input: Could you tell me which EC50 is on file for Fc1ccc(Nc2n[nH]c3cccnc23)cc1Cl ?
Output: 9.8

* * *

- experiment: in vivo
- measurement_context: rat, plasma, po, 10 mg/kg
parameter_measured: AUC

Input: Could you tell me which AUC is on file for Fc1ccc(Nc2n[nH]c3cccnc23)cc1Cl [Compound 26] ?
Output: 7420 ng·h/mL

* * *

- experiment: plasma protein binding, mouse
- Assay type: in vitro ADME
parameter_measured: fraction unbound
Give bare numbers.

Input: Could you tell me which fraction unbound is on file for Fc1ccc(Nc2n[nH]c3cccnc23)cc1Cl [Compound 26] ?
Output: 0.019

* * *

- experiment: in vivo
- measurement_context: rat, iv, 1 mg/kg
parameter_measured: clearance (mL/min/kg)
Give bare numbers, in mL/min/kg.

Input: Could you tell me which clearance is on file for Fc1ccc(Nc2n[nH]c3cccnc23)cc1Cl ?
Output: 29

* * *

- tgt: UniProt P08183
- experiment: Permeability
- Format: in vitro ADME
- measurement_context: not told
parameter_measured: Papp B→A (×10⁻⁶ cm/s)
Answers are plain numbers, in ×10⁻⁶ cm/s.

Input: Could you tell me which Papp B→A is on file for Fc1ccc(Nc2n[nH]c3cccnc23)cc1Cl ?
Output: 14

* * *

- tgt: P-glycoprotein (Pgp) (Homo sapiens)
- Sequence (P08183 whole entry): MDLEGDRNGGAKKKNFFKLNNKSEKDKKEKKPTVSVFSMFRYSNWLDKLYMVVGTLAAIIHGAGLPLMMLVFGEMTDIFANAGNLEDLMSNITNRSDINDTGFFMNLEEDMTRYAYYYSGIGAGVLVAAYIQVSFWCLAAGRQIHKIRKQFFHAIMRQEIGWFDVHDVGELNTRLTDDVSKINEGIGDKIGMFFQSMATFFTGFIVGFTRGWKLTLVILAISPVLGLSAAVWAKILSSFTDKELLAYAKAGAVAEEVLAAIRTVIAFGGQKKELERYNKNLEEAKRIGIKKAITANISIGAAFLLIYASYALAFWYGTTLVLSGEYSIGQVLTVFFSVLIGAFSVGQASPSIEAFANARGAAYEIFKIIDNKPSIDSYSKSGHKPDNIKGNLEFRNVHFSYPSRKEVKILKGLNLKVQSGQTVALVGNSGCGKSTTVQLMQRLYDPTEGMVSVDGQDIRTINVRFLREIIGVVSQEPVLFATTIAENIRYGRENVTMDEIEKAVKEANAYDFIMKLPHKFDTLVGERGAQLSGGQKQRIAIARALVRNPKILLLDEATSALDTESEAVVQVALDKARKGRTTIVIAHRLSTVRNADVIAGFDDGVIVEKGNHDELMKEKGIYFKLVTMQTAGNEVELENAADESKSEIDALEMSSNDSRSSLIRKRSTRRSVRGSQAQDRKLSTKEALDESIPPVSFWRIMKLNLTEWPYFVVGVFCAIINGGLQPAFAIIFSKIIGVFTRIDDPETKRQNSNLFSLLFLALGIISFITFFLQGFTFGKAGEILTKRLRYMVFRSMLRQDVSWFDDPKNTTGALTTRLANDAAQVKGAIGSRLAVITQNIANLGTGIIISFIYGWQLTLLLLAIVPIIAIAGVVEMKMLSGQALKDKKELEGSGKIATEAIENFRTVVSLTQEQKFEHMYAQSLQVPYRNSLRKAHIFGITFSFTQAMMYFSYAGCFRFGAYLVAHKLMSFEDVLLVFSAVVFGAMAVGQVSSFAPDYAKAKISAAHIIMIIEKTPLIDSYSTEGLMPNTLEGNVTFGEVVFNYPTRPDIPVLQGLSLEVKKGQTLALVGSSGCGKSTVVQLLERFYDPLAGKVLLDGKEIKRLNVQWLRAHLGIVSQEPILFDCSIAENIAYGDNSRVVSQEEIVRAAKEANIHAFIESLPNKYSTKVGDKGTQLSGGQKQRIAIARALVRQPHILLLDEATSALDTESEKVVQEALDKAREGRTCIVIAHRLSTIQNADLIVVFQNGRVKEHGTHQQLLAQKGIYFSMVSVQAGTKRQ
- experiment: Permeability
- Assay type: in vitro ADME
- measurement_context: not told
parameter_measured: Papp A→B (×10⁻⁶ cm/s)
Give bare numbers, in ×10⁻⁶ cm/s.

Input: Identify the measured Papp A→B of Fc1ccc(Nc2n[nH]c3cccnc23)cc1Cl [Compound 26] for P-glycoprotein (Pgp) (Homo sapiens).
Output: 24

* * *

- experiment: in vivo
- measurement_context: rat, iv, 1 mg/kg
parameter_measured: half-life (h)
Numbers only, in h.

Input: Could you tell me which half-life is on file for Fc1ccc(Nc2n[nH]c3cccnc23)cc1Cl ?
Output: 1.52

* * *

- experiment: in vivo
- measurement_context: rat, plasma, po, 10 mg/kg
parameter_measured: Cmax (ng/mL)
One number for each entry, in ng/mL.

Input: Could you tell me which Cmax is on file for Fc1ccc(Nc2n[nH]c3cccnc23)cc1Cl ?
Output: 875
